Data origin: ChEMBL document CHEMBL4152362

# Assay explanation: Half life in cynomolgus monkey at 3 mg/kg, po by LC-MS/MS
# Format: ADME, organism-based, Macaca fascicularis
# Experimental context: in vivo
Measured endpoint: half-life (h)

Observe how each entry below is paired with its result.
Exercise: Recorded half-life of `Cn1c(COc2cccc(C(=O)O)c2)nc2ccc(Oc3ccc(Cl)c(F)c3)cc21` , please.
Key: 18.3

Exercise: Next: `Cc1cnc(Oc2ccc3nc(COc4cccc(C(=O)O)c4)n(C)c3c2)c(C)c1`
Key: 13.5

Exercise: # repeat for `Cc1cnc(Oc2ccc3nc(COc4cccc(C(=O)O)c4)n(C)c3c2)c(F)c1`
Key: 49.8

a: Cn1c(COc2cccc(C(=O)O)c2)nc2ccc(Oc3ccc4c(c3)OCC4)nc21
b: Cn1c(COc2cccc(C(=O)O)c2)nc2ccc(Oc3ncc(Cl)cc3F)cc21
Exercise: Which has the smaller recorded half-life, a or b ? Which one? Tell me its label.
Key: b

====

# Assay explanation: Aqueous thermodynamic solubility of the compound in pH 6.8 solution up to 4 hrs by HPLC-UV analysis
# Assay type: physicochemical
# Experimental context: read-out: Therm_solubility
Measured endpoint: solubility thermodynamic at 4 h (µg/mL)

See these solved cases before continuing.
Exercise: Value lookup for solubility thermodynamic at 4 h; key = `Cc1ccc(Oc2ccc3nc(COc4cccc(C(=O)O)c4)n(C)c3n2)c(C)c1`
Key: 0.9

Exercise: Check `Cn1c(COc2cccc(C(=O)O)c2)nc2ccc(Oc3ccc(F)cn3)cc21` too.
Key: 79

Exercise: Check `Cc1ccc(Oc2cc3c(cn2)nc(COc2cccc(C(=O)O)c2)n3C)cc1` too.
Key: 360

Exercise: What do you get for `Cc1ccc(Oc2ccc3nc(COc4cccc(C(=O)O)c4)n(C)c3n2)cc1C` ?
Key: 16

Exercise: Consider next the compound `Cn1c(COc2cccc(C(=O)O)c2)nc2ccc(Oc3ccc(F)cc3)nc21` in the same way.
Key: 11

I: Cn1c(COc2cccc(C(=O)O)c2)nc2ccc(Oc3cc(Cl)ccn3)cc21
II: Cn1c(COc2cccc(C(=O)O)c2)nc2ccc(Oc3ccc(Cl)cn3)cc21
III: Cc1ccc(Oc2ccc3nc(COc4cccc(C(=O)O)c4)n(C)c3c2)nc1
IV: Cc1cc(C)cc(Oc2ccc3nc(COc4cccc(C(=O)O)c4)n(C)c3n2)c1
Exercise: Ascending by solubility thermodynamic at 4 h, please: list the compounds accordingly. Rank them, then answer with their labels in that order.
Key: IV, I, II, III

====

# Assay explanation: 1-octanol/PBS distribution co-efficient, log D of the compound at […] at pH 7.4 after 30 mins by HPLC-MS/MS method
# Assay type: physicochemical
Measured endpoint: logD at 0.5 h

I: Cc1ccc(Oc2ccc3nc(COc4cccc(C(=O)O)c4)n(C)c3c2)nc1
II: Cc1ccc(Oc2ccc3nc(COc4cccc(C(=O)O)c4)n(C)c3n2)cc1C
Exercise: Which gives the smaller logD at 0.5 h number: I or II ? Choose, then provide that item's label.
Key: I
(I: 0.9, II: 2.2)

1: Cl.Cl.Cn1c(COc2cccc(C(=O)O)c2)nc2ccc(Oc3ccccc3)nc21
2: Cc1cc(Cl)cnc1Oc1ccc2nc(COc3cccc(C(=O)O)c3)n(C)c2c1
Exercise: Which is greater in logD at 0.5 h, the first item 1 or the second item 2 ? The response must carry the label of the picked entry.
Key: 2

P: Cn1c(COc2cccc(C(=O)O)c2)nc2cnc(Oc3ccc4c(c3)OCC4)cc21
Q: Cn1c(COc2cccc(C(=O)O)c2)nc2ccc(Oc3ncc(Cl)cc3F)cc21
R: Cc1ccc(Oc2ccc3nc(COc4cccc(C(=O)O)c4)n(C)c3n2)cc1F
Exercise: # ascending order, key=logD at 0.5 h Return the labels ranked in the requested order, please.
Key: P, Q, R

A: Cn1c(COc2cccc(C(=O)O)c2)nc2ccc(Oc3cccc(Cl)n3)cc21
B: Cn1c(COc2cccc(C(=O)O)c2)nc2ccc(Oc3ccc(Cl)c(F)c3)nc21
Exercise: // select label with min value of measured logD at 0.5 h from [ A , B ] Use the label to indicate which entry you chose.
Key: A

====

# Assay explanation: Cmax in Zucker diabetic fatty rat at 3 mg/kg, po dosed once daily for 14 days and followed by additional administration on day 15
# Assay type: ADME, organism-based
# Set-up: dose 3 mg/kg, route oral
# Experimental context: in vivo
Measured endpoint: Cmax (ng/mL)

Field: example entries. Status: answers known.
Exercise: Fill blank: measured Cmax of the compound `Cn1c(COc2cccc(C(=O)O)c2)nc2cnc(Oc3ccc4c(c3)CCC4)cc21` is ____.
Key: 410

Exercise: Record: `Cn1c(COc2cccc(C(=O)O)c2)nc2ccc(Oc3ccc4c(c3)OCC4)nc21`
Key: 630

Exercise: Same question, `Cc1cnc(Oc2ccc3nc(COc4cccc(C(=O)O)c4)n(C)c3c2)c(C)c1` this time
Key: 180

Exercise: Same read-out for `Cc1cnc(Oc2ccc3nc(COc4cccc(C(=O)[O-])c4)n(C)c3c2)c(F)c1.[Na+]` ?
Key: 420

Exercise: Now consider `Cn1c(COc2cccc(C(=O)O)c2)nc2ccc(Oc3ncc(Cl)cc3F)cc21` and answer again.
Key: 450

Exercise: Can you handle `Cc1cc(Cl)cnc1Oc1ccc2nc(COc3cccc(C(=O)O)c3)n(C)c2c1` next?
Key: 120

I: Cc1ccc(Oc2ccc3nc(COc4cccc(C(=O)O)c4)n(C)c3n2)cc1
II: Cn1c(COc2cccc(C(=O)O)c2)nc2ccc(Oc3ncc(Cl)cc3Cl)cc21
III: Cn1c(COc2cccc(C(=O)O)c2)nc2ccc(Oc3ccc(Cl)cn3)cc21
Exercise: # rank_down: sort by Cmax, max first Form field (ranking): labels in requested order.
Key: I, II, III
(I: 510 ng/mL, II: 130 ng/mL, III: 66 ng/mL)

====

# Assay explanation: AUC (0 to 24 hrs) in Zucker diabetic fatty rat at 3 mg/kg, po dosed once daily for 14 days and followed by additional administration on day 15
# Assay type: ADME, organism-based
# Parameters: time < 24 hr, dose 3 mg/kg, route oral
# Experimental context: in vivo
Measured endpoint: AUC at 24 h (µg·h/mL)

Solved entries (count: 3):
Exercise: # AUC at 24 h lookup, item `Cc1cnc(Oc2ccc3nc(COc4cccc(C(=O)O)c4)n(C)c3c2)c(C)c1`
Key: 2.49

Exercise: Check `Cn1c(COc2cccc(C(=O)O)c2)nc2ccc(Oc3ccc4c(c3)OCC4)nc21` too.
Key: 3.39

Exercise: Record: `Cn1c(COc2cccc(C(=O)O)c2)nc2ccc(Oc3ncc(Cl)cc3Cl)cc21`
Key: 1.4

I: Cc1cnc(Oc2ccc3nc(COc4cccc(C(=O)[O-])c4)n(C)c3c2)c(F)c1.[Na+]
II: Cc1ccc(Oc2ccc3nc(COc4cccc(C(=O)O)c4)n(C)c3n2)cc1
III: Cn1c(COc2cccc(C(=O)O)c2)nc2ccc(Oc3ccc(Cl)cn3)cc21
Exercise: Falling order of AUC at 24 h, please. Enter labels, ranked according to the request.
Key: I, II, III

A: Cn1c(COc2cccc(C(=O)O)c2)nc2ccc(Oc3ccc4c(c3)CCC4)nc21
B: Cn1c(COc2cccc(C(=O)O)c2)nc2cnc(Oc3ccc4c(c3)CCC4)cc21
C: Cc1cc(Cl)cnc1Oc1ccc2nc(COc3cccc(C(=O)O)c3)n(C)c2c1
Exercise: Please rank these compounds by AUC at 24 h in descending order. Rank them, then answer with their labels in that order.
Key: A, B, C
(A: 4.08 µg·h/mL, B: 2.41 µg·h/mL, C: 1.25 µg·h/mL)

====

# Assay explanation: Tmax in Zucker diabetic fatty rat at 3 mg/kg, po dosed once daily for 14 days and followed by additional administration on day 15
# Format: ADME, organism-based
# Experimental context: in vivo
Measured endpoint: Tmax (h)

Exercise: What value of measured Tmax is listed for `Cc1ccc(Oc2ccc3nc(COc4cccc(C(=O)O)c4)n(C)c3n2)cc1` ?
Key: 2

Exercise: Moving on to the next molecule: `Cc1cc(Cl)cnc1Oc1ccc2nc(COc3cccc(C(=O)O)c3)n(C)c2c1`
Key: 2.4

Exercise: Subsequent entry: `Cn1c(COc2cccc(C(=O)O)c2)nc2cnc(Oc3ccc4c(c3)CCC4)cc21`
Key: 2

A: Cn1c(COc2cccc(C(=O)O)c2)nc2ccc(Oc3ccc4c(c3)OCC4)nc21
B: Cn1c(COc2cccc(C(=O)O)c2)nc2ccc(Oc3ccc(Cl)cn3)cc21
Exercise: Please indicate which item has the smaller measured Tmax: A versus B Could you answer with the label of the item you picked?
Key: A

====

# Assay explanation: Tmax in F344/DuCrlCrlj rat at 300 mg/kg, po via gavage measured on day 28 post dose
# Assay type: ADME, organism-based
# Experimental context: in vivo
Measured endpoint: Tmax (min)
// return numeric value only (unit: min, not printed)

Exercise: Given the entry `Cc1cnc(Oc2ccc3nc(COc4cccc(C(=O)O)c4)n(C)c3c2)c(C)c1.Cl` , report its measured Tmax.
Key: 30
